Tested on: CCRF-CEM/VBL
Assay info: In vitro cytotoxicity, XTT assay, CCRF-CEM/VBL
Type: cell-based, human
Condition summary: Homo sapiens, CCRF-CEM; Table 5; vinblastine-resistant subline; XTT, 72 h; read-out: Cell Growth inhibition (IC50 μM) CCRF-CEM/VBL
Source text: Human colon carcinoma HCT-116 cells and human prostate adenocarcinoma PC-3 cells were obtained from American Type Culture Collection (ATCC, Rockville, Md.). Human mammary carcinoma (MX-1) tumor cells were obtained from MSKCC cell bank. The CCRF-CEM human lymphoblastic leukemia cells and their vinblastine resistant subline (CCRF-CEM/VBL, 680-fold resistance in vitro) were obtained from Dr. William Beck of the University of Illinois, Chicago, and CCRF-CEM/Taxol (330-fold resistance in vitro). […]
Lab note: anything with IC50 below 2 µM is marked Met; values at 2 µM or higher are marked Not met.

Solved entries:
COc1ccc(-c2c(CO)c(CO)c3sc4ccccc4n23)cc1 [Compound 18g]
Not met
OCc1c(CO)c2sc3ccccc3n2c1C1CC1 [Compound 18j]
Not met
OCc1c(CO)c2sc3ccccc3n2c1-c1ccc(F)c(F)c1 [Compound 18d]
Met

Please let me know if OCc1c(CO)c2sc3ccccc3n2c1-c1ccc(Cl)cc1 [Compound 18c] shows IC50 below 2 µM.
Not met

Please let me know if Cc1c(CO)c(CO)c2sc3ccccc3n12 [Compound 18a] shows IC50 below 2 µM.
Met

Please let me know if OCc1c(CO)c2sc3ccccc3n2c1-c1ccc(F)cc1 [Compound 18b] shows IC50 below 2 µM.
Not met
